protein stability index listing for selected variants.
B1: POMT2 (parent)
chain: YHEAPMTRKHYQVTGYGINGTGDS

Variants of: B1
Assay comment: protein stability index of a GFP-peptide fusion (GPS, HEK-293T) (PSI 1-6); higher = more stable;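 further: lentivirally expressed fusions sorted by FACS into six bins by GFP to DsRed ratio, PSI derived from sequencing read proportions per bin multiplied by bin number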
Measurement setup: c terminus: a fixed tail appended

Seq	protein stability index
YHEAPMTRKHYQVTGYGINGTWDS [G22W]	1.7
YHEAPMTRKHYQVTGYGINGTGQS [D23Q]	2.44
YHEAPMTRKHYQVTGYGGNGTGDS [I18G]	2.2
YHEAPMTRIHYQVTGYGINGTGDS [K9I]	2.12
YHEAPMTRKHYQVTGYGINGTGLS [D23L]	1.95
YHEAPMTRKDYQVTGYGINGTGDS [H10D]	3.54
YHEAPMARKHYQVTGYGINGTGDS [T7A]	2.33
YHEEPMTRKHYQVTGYGINGTGDS [A4E]	2.93
YHEAPMTRKTYQVTGYGINGTGDS [H10T]	2.08
